# Lookup of reported pKi keyed by entry
- assayed system: human GlyT1c transporter (Homo sapiens, UniProt P48067)
- Construct: expressed in transfected cells; host or cells: CHO cells (recombinant; line hGlyT1c_5_CHO is named for the uptake assay)
- Sequence (P48067 whole entry): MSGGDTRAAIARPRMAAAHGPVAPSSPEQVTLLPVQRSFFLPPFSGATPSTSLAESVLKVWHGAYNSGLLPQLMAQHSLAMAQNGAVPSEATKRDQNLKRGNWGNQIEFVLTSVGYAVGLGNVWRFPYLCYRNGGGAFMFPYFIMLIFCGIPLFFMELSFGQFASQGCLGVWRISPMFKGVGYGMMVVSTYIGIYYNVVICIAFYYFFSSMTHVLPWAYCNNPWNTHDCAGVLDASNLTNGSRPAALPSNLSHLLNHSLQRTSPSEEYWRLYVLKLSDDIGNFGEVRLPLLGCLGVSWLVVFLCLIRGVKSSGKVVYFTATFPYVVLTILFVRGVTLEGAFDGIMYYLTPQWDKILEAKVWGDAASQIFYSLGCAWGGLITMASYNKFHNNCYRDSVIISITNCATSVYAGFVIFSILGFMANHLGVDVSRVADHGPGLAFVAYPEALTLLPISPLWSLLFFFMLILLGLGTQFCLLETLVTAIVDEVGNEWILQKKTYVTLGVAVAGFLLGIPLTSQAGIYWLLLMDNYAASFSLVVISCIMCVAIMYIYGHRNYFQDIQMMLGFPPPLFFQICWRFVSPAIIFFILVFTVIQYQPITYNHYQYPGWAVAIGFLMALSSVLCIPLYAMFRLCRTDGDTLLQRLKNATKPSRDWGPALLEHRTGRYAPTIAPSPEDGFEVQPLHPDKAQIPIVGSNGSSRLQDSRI
- measurement notes: Radioligand binding assay using recombinant CHO cell membranes expressing human GlyT1
- conditions: radioligand binding to human GlyT1c transporter-expressing membranes
pKi: −log10 of the molar value.

Cn1cnc(S(=O)(=O)N2C[C@@H](Nc3cncc(C(F)(F)F)c3)[C@H](c3ccccc3)C2)c1 (relative stereo) ... ≥ 6.00
Cn1cnc(S(=O)(=O)N2C[C@@H](Nc3ccc(F)c(Cl)c3)[C@H](c3cccc(F)c3)C2)c1 (relative stereo) ... ≥ 7.00
COc1ccc(N[C@H]2CN(S(=O)(=O)c3cn(C)cn3)C[C@@H]2c2ccccc2)cc1C(F)(F)F ... ≥ 5.00

**Query** Would you kindly share the measured pKi for Cn1cnc(S(=O)(=O)N2C[C@@H](Nc3ccc(F)cc3)[C@H](c3ccc(F)cc3)C2)c1 [Example 324] ?
**Result** ≥ 5.00

**Query** So what's the measured pKi for this one? Cn1cnc(S(=O)(=O)N2C[C@@H](Nc3ccc(Cl)c(Cl)c3)[C@H](c3ccc(F)cc3)C2)c1 (relative stereo)
**Result** ≥ 6.00

**Query** Field request: pKi | item: Cn1cnc(S(=O)(=O)N2C[C@@H](S(=O)(=O)c3ccccc3)[C@H](c3ccccc3)C2)c1 (relative stereo)
**Result** ≥ 5.00

**Query** # lookup: pKi of Cn1cnc(S(=O)(=O)N2C[C@H](NC(=O)C3CCC(C(F)(F)F)CC3)[C@@H](c3ccc(F)cc3)C2)c1 (stereo partly drawn)
**Result** ≥ 5.00

**Query** What measured pKi goes with Cn1cnc(S(=O)(=O)N2C[C@H](NCC3CCOC3)[C@@H](c3ccccc3)C2)c1 (stereo partly drawn) ?
**Result** ≥ 5.00

**Query** Which pKi value is on record for Cn1cnc(S(=O)(=O)N2C[C@@H](Nc3ccc(F)c(F)c3)[C@H](c3ncco3)C2)c1 (relative stereo) ?
**Result** ≥ 5.00

**Query** pKi for Cn1cnc(S(=O)(=O)N2C[C@@H](NC(=O)c3cccc(C(F)(F)F)c3Cl)[C@H](c3ccc(Cl)cc3)C2)c1 (relative stereo) ?
**Result** ≥ 6.00

**Query** So what's the measured pKi for this one? `CC(C)c1cc(N[C@H]2CN(S(=O)(=O)c3cn(C)cn3)C[C@@H]2c2ccc(F)cc2)ccc1Cl`
**Result** ≥ 6.00

**Query** # lookup: pKi of Cn1cnc(S(=O)(=O)N2C[C@@H](NCc3ccccc3)[C@H](c3ccc(F)cc3)C2)c1 (relative stereo)
**Result** ≥ 5.00

**Query** What measured pKi goes with Cn1cnc(S(=O)(=O)N2C[C@@H](CNc3ccc(F)c(C(F)(F)F)c3)[C@H](c3ccc(F)cc3)C2)c1 (relative stereo) ?
**Result** ≥ 6.00

**Query** Item `Cc1cccc(-c2cc(N[C@H]3CN(S(=O)(=O)c4cn(C)cn4)C[C@@H]3c3ccc(F)cc3)ncn2)c1` has what recorded pKi?
**Result** ≥ 7.00

**Query** For Cc1nc(C)c(S(=O)(=O)N2CC(Nc3ccc(F)c(F)c3)C(c3ccccc3)C2)s1 (stereo not drawn) , what is its reported pKi?
**Result** ≥ 5.00

**Query** Tell me the measured pKi of Cn1cnc(S(=O)(=O)N2CC(c3ccc(F)cc3)C(c3ccccc3Cl)C2)c1 (stereo not drawn) , please.
**Result** ≥ 5.00

**Query** What value of pKi has been recorded for this entry: Cn1cnc(S(=O)(=O)N2C[C@@H](Nc3cc(C#N)ccc3F)[C@H](c3ccccc3)C2)c1 (relative stereo)
**Result** ≥ 5.00

**Query** Which pKi is reported for this compound? `Cc1nc(S(=O)(=O)N2C[C@H](Nc3ccc(F)c(F)c3)[C@@H](c3ccc(F)cc3)C2)cn1C`
**Result** ≤ 5.00

**Query** Give its pKi value. Item: Cn1cnc(S(=O)(=O)N2C[C@@H](Nc3ccnc(C(F)(F)F)c3)[C@H](c3ccccc3)C2)c1 (relative stereo)
**Result** ≥ 6.00

**Query** Any idea what its pKi is? The compound is Cn1cnc(S(=O)(=O)N2C[C@@H](Nc3ccc(F)c(F)c3)[C@H](c3ccccc3)C2)c1 (relative stereo)
**Result** ≥ 6.00

**Query** Please give the measured pKi for this compound: `Cn1cnc(S(=O)(=O)N2C[C@H](Nc3ncc(F)cn3)[C@@H](c3ccccc3)C2)c1`
**Result** ≥ 6.00
